Assignment: determine reported z-score for the given compounds.
Assay: fission yeast growth modulation, primary screen, strain 972, OD600, 24 h, no modulator (AID 1090);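 also: basal condition with compound alone and no growth modifier present; test concentration not given here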
Conditions: S. pombe 972 growth, higher = more signal, called active from +8 up or from −8 down
Form: value (number only, do not type unit).

Recorded z-score for "C=C(C(=O)CC[C@H](OC(C)=O)c1ccc(OCCO)cc1)C(C)C" , please? -20.5

What does the data say about its z-score? Entry: "COC(=O)[C@@]1(Cc2ccccc2)N=C(c2ccc(OCCCO)cc2)O[C@H]1c1ccccc1N=[N+]=[N-]" -2.2

Give the measured z-score of CN1C(=O)C2C(C1=O)C1C=C(CCCO)C2C(c2cccs2)N1C (centres undefined) . -0.149

Item under review: "COC(=O)[C@@]1(Cc2ccc(OC)cc2)[C@H]2c3cc(C(=O)N4CCCC4)n(Cc4cc(F)cc5c4OCOC5)c3C[C@H]2CN1C(=O)c1ccccc1" . Reported z-score? -0.87

---

Assay: MM1S myeloma cell viability, profiling panel, resazurin fluorescence, basal, 24 h, PK04 Diversity Set (AID 1174);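 also: MM1S multiple myeloma cell line; test concentration not given here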
Conditions: higher = more signal, called active from +8 up or from −8 down
Measured attribute: z-score
Please respond with just the number, no unit label.

May I ask what z-score has been recorded for "CCCC[C@@H]1C[C@H]1[C@@H](NC(=O)c1ccc(-c2ccccc2)cc1)c1ccc(-c2ccccc2)cc1" ? -0.271

// lookup z-score for "COc1ccc(CCN2C(=O)[C@@]3(Cc4ccccc42)c2ccccc2C(=O)N(Cc2ccccc2Cl)[C@H]3c2ccc(CO)cc2)cc1" 0.249

Reported z-score for "CC(=O)NCCCC[C@@H]1NC(=O)[C@@H]2C[C@H](C(=O)NCCCCN(C)C)[C@H](c3ccc(O)cc3)N2C1=O" : what is it? 0.925

Which z-score is reported for this compound? "COc1ccc([Si](C)(C)[C@H]2[C@H](CCn3cc([C@H](O)c4ccccc4)nn3)O[C@@]3(C(=O)N(Cc4cccc(N5CCC5=O)c4)c4ccccc43)[C@@H]2C)cc1" -0.85

Consider the compound N#Cc1ccc(NN2C(C(O)c3ccc([N+](=O)[O-])cc3)C=CC3C(=O)N(c4ccccc4)C(=O)C32)cc1 (centres undefined) and give its measured z-score. -0.55

Look up z-score for this compound: "CCOC(=O)C[C@H]1[C@H](OC(=O)c2ccc(-c3ccccc3)cc2)[C@@H](NC(=O)c2ccc3ccccc3c2)c2cc(OCCCO)ccc2N1C(=O)Cc1ccc(OC)cc1" 0.158

I'd like to know its z-score. The compound in question is "COc1ccc(CCNC(=O)[C@@H]2c3ccccc3C(=O)N(Cc3ccc(OC(F)(F)F)cc3)[C@H]2c2ccc(CO)cc2)cc1" -0.0601

Recorded z-score for CCCCCN1CC=CC23O[C@@H]4C=CCOC(=O)[C@@H]4[C@H]2C(=O)N(CCCO)[C@@H]3C1=O (some centres undefined) , please? 0.806

Would you mind telling me what z-score value was observed for C=CCC(OC(C)=O)[C@@H]1[C@@H](N(Cc2ccc(-c3cccc(C(F)(F)F)c3)o2)C(=O)c2ccc(C)cc2)c2cc(OCCCO)ccc2N1C(=O)c1ccc(-c2ccccc2)cc1 (some centres undefined) ? -0.936

Could you share which z-score value was measured for "CCCCC=C[C@@H](NC(=O)c1cccs1)c1ccccc1" ? -0.321

Tell me the measured z-score of "COCCOC(=O)N1C(=O)[C@@]2(c3cc(C#CCCO)ccc31)[C@H](C(=O)NC[C@H](O)c1ccccc1)[C@H]1C(=O)O[C@H](c3ccccc3)[C@H](c3ccccc3)N1[C@@H]2c1ccc(O)cc1" , please. 0.858

Look up z-score for this compound: CCCCCN1CC=CC23O[C@@H]4/C=C\CCCOC(=O)C4[C@H]2C(=O)N(CCCCCCO)[C@@H]3C1=O (some centres undefined) 0.972

Recorded z-score of "COCC1=C2[C@@H](CCc3ccccc3)OB(O)C[C@@H]2[C@@H]2C(=O)N(Cc3ccccc3)C(=O)[C@@H]2C1" , please. -0.278

May I ask what z-score has been recorded for "Cc1ccc(F)cc1S(=O)(=O)N[C@@H]1CCN(Cc2ccc(-c3ccccc3)cc2)C1" ? -3.27

---

Assay: modulators of HCV replicon luciferase signal, primary screen, HCV replication inhibitor project, Huh7 cells, luciferase reporter (AID 1109);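 also: huh7 hepatoma cells harbouring a luciferase neomycin HCV replicon reporter; luciferase luminescence as measure of HCV replicon replication; test concentration not given here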
Conditions: 48 h, higher = more signal
The label depends only on z-score: MET if it is at least -0.3, NOT MET if it is smaller.

// inclusive: z-score at least -0.3? input: O=C1OCCC/C=C\[C@H]2OC34C=CCN(Cn5nnc6ccccc65)C(=O)[C@H]3N(CCCCCO)C(=O)[C@@H]4C12 (some centres undefined) MET

Hi, just wondering whether "CCCNC(=O)[C@@H]1c2ccccc2C(=O)N(Cc2ccccc2)[C@H]1c1ccc(CO)cc1" shows z-score of -0.3 or higher. NOT MET

Please check the record O=C(OCCF)C1=CCC(c2cccc(Cl)c2)O1 (centres undefined) and state if its z-score is at or above -0.3. MET

API: above_or_equal(metric=z-score, cutoff=-0.3) for item CCCCC(O)C1C=CC2C(=O)N(C3CCCCC3)C(=O)C2N1Nc1ccc(OC)cc1 (centres undefined) NOT MET

For this compound, is measured z-score -0.3 or higher? "[N-]=[N+]=Nc1ccccc1[C@@H]1OC(c2ccc(OCCCO)cc2)=N[C@]1(CCS(=O)(=O)c1ccccc1)C(=O)N1CCOCC1" MET

API: above_or_equal(metric=z-score, cutoff=-0.3) for item COC(=O)c1ccc(C(O)C2C=CC3C(=O)N(c4ccccc4)C(=O)C3N2Nc2ccc(C#N)cc2)o1 (centres undefined) MET

Test whether the compound "Cc1c(NC(=O)CC#N)c(=O)n(-c2ccccc2)n1C" records z-score of -0.3 or higher. MET

Is z-score at least -0.3? Consider "CCCCCCc1nc(CCCc2cc3c(c(CCCCCC)n2)[Si](C(C)C)(C(C)C)OC3)cc2c1[Si](C(C)C)(C(C)C)OC2" NOT MET

Exam item: decide whether the reported z-score for "COC(=O)[C@@]1(Cc2ccccc2)[C@H]2c3cc(C(=O)N(C)C)n(Cc4c(-c5ccccc5)noc4C)c3C[C@H]2CN1C(=O)c1ccccc1" is at least -0.3. NOT MET

# check: z-score of "COc1ccc(C#Cc2ccc3c(c2)[C@]2(C(=O)N3)[C@H](C(=O)NC[C@H](O)c3ccccc3)[C@H]3C(=O)O[C@H](c4ccccc4)[C@H](c4ccccc4)N3[C@@H]2c2ccc(OCCO)cc2)cc1" is greater than or equal to -0.3 NOT MET

Say whether "NC(=O)NCC#Cc1ccc2c(c1)[C@]1(C(=O)N2)[C@H](C(=O)N2CCCCCCC2)[C@H]2C(=O)O[C@H](c3ccccc3)[C@H](c3ccccc3)N2[C@@H]1c1ccc(OCCO)cc1" shows z-score of -0.3 or more. NOT MET

Check if z-score >= -0.3 (inclusive). Item: "O=C/C=C/c1ccc(Cl)cc1" NOT MET

Determine whether measured z-score meets or exceeds -0.3 for "O=C1O[C@H](c2ccccc2)[C@H](c2ccccc2)N2[C@H]1[C@@H](C(=O)NC[C@H](O)c1ccccc1)[C@]1(C(=O)Nc3ccc(C#CCCO)cc31)[C@H]2c1ccc(O)cc1" NOT MET

I'd appreciate it if you could say whether "CC(C)(C)OC(=O)CC[C@@]1(C(=O)NCCN2CCOCC2)N=C(c2ccc(OCCCO)cc2)O[C@@H]1c1ccccc1" has z-score at least equal to -0.3. MET

# bool: z-score of COC(=O)c1ccc(OC)c(/C=C\CC(OC(C)=O)c2ccccc2)c1 (centres undefined) >= -0.3 NOT MET

Threshold query (z-score >= -0.3) on "CC1=C2[C@@H](CCc3ccccc3)OB(O)C[C@@H]2n2c(=O)n(-c3ccccc3)c(=O)n2C1" NOT MET

Tell me whether z-score is at least -0.3 here: "Cc1ccc([C@H]2[C@H](C(=O)O)[C@H](Sc3ccccc3)[C@@H](C(C)C)N2S(=O)(=O)c2ccc(C)cc2)cc1" NOT MET

Tell me whether z-score is at least -0.3 here: "CCOC(=O)C[C@H]1[C@H](OC(=O)c2ccccc2-c2ccccc2)[C@@H](NC(=O)Cc2ccc(OC)cc2)c2cc(OCCCO)ccc2N1C(=O)c1ccccc1" NOT MET

Textbook exercise: given the entry CN1C(=O)C2C=CC(C(O)c3ccccn3)N(Nc3ccccc3)C2C1=O (centres undefined) , state whether its z-score is greater than or equal to -0.3. MET

Test whether the compound "CCOC(=O)C[C@H]1[C@H](OC(=O)c2ccc(-c3ccccc3)cc2)[C@@H](NC(=O)Cc2ccc(OC)cc2)c2cc(OCCCO)ccc2N1C(=O)c1ccc2ccccc2n1" records z-score of -0.3 or higher. NOT MET

Could you please find out whether "CN(C)C(=O)[C@@]1(CCC(=O)OC(C)(C)C)N=C(c2ccc(OCCCO)cc2)O[C@H]1c1ccccc1" has z-score that meets -0.3 or exceeds it? NOT MET

Assess whether reported z-score for "COCC(=C=CC[C@H](O)c1ccc(OCCO)cc1)C[C@H](O)c1cc(Cl)cc(Cl)c1O" sits at -0.3 or higher. NOT MET

Check this compound for z-score at or above -0.3: "[N-]=[N+]=NCc1ccccc1C[C@@]1(C(=O)N2CCOCC2)N=C(c2ccc(OCCCO)cc2)O[C@@H]1c1ccccc1CN=[N+]=[N-]" NOT MET

Answer whether z-score of "COC(=O)[C@@]1(Cc2ccccc2)[C@H]2c3cc(C(=O)N4CCCC4)n(C)c3C[C@H]2CN1C(=O)c1ccccc1" is greater than or equal to -0.3. NOT MET

Identify whether the reported z-score of the following compound is -0.3 or greater: "COc1ccc(CCNC(=O)[C@@]2(c3ccc([N+](=O)[O-])cc3)CC(=O)N(CC34CC5CC(CC(C5)C3)C4)[C@@H]2c2ccc(CO)cc2)cc1" NOT MET

Textbook exercise: given the entry "NCCCCCCNC(=O)[C@H]1C[C@H]2C(=O)NCC(=O)N2[C@H]1c1cccc(OCCO)c1" , state whether its z-score is greater than or equal to -0.3. MET

Could you tell me if the measured z-score of "C=CCOC(=O)[C@H]1[C@@H]2C(=O)O[C@@H](c3ccccc3)[C@@H](c3ccccc3)N2[C@@H](c2ccc(OCCOC(=O)[C@@H]3C[C@@H]4C(=O)N5CCC[C@H]5C(=O)N4[C@@H]3c3ccc(O)cc3)cc2)[C@]12C(=O)Nc1ccccc12" reaches -0.3 or more? NOT MET

Could you please find out whether "C=CC[C@@]1(C(=O)O)N=C(c2ccc(OCCCO)cc2)O[C@@H]1c1ccccc1N=[N+]=[N-]" has z-score that meets -0.3 or exceeds it? MET

Could you please find out whether C=CCC(OC(C)=O)[C@@H]1[C@@H](N(Cc2cccc3ccccc23)C(=O)c2cccc3ccccc23)c2cc(OCCCO)ccc2N1C(=O)c1ccc2ccccc2n1 (some centres undefined) has z-score that meets -0.3 or exceeds it? MET

src = PubChem BioAssay
